- Study system: DLG4_1, P78352
- Sequence (P78352 62-152): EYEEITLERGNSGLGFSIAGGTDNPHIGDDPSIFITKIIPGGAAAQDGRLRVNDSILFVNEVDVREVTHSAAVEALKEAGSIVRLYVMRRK
- Measurement description: holdup assay
- Design: key: below the threshold = too weak to quantify, mostly under pKd 3.1 to 4
- Conditions used: plain residues with an end cap or a label only (N-terminal biotin on a linker: ado-ado)

Binder: RDPPAEWTRV [PTPN18, Q99952]
pKd: 4.07
//
Binder: KSRVAFFEEL [NF2, P35240]
pKd: 3.63
//
Binder: NIAESLESLV [PTPRZ1, P23471]
pKd: 4.65
//
Binder: VKRNSKETVV [MARCHF3, Q86UD3]
pKd: 5.48
//
Binder: VLYPREGTEV [FOXI1, Q12951]
pKd: 4.48
//
Binder: REEPDHSTEV [CCRL2, O00421]
pKd: 4.71
//
Binder: LESTTVGTSV [KARS1, Q15046]
pKd: 4.13
//
Binder: QLSFNTDTLC [ABCA2, Q9BZC7]
pKd: 3.7
